Please go through the items and note down their LD50 at 168 h.
- Test name: Acute toxicity in po dosed rat after 7 days
- Condition set: in vivo
State just the number; it will be interpreted in mg/kg.

**Q:** Any idea what its LD50 at 168 h is? The compound is CC(C(=O)O)c1ccc2c(c1)OCc1cc(Cl)ccc1C2=O (stereo not given)
**A:** 12.1

**Q:** Repeat for the following compound: O=C(O)Cc1ccc2c(c1)C(=O)c1ccccc1CO2
**A:** 199

**Q:** Repeat for the following compound: COc1ccc2c(c1)c(CC(=O)O)c(C)n2C(=O)c1ccc(Cl)cc1
**A:** 18.9

**Q:** Repeat for the following compound: CC(C(=O)O)c1ccc2c(c1)OCc1ccccc1C2=O (racemic)
**A:** 34.2

**Q:** Repeat for the following compound: O=C(O)Cc1ccc2c(c1)OCc1ccccc1C2=O [OXEPINAC]
**A:** 110

----------
- Tested on: Rattus norvegicus
- Test name: Antiinflammatory activity in po dosed rat assessed as inhibition of carrageenan-induced paw edema
- Assay type: functional
- Condition set: Rattus norvegicus, po; read-out: ID50 (the source's name)
Measure name: ED50 (mg/kg)
State just the number; it will be interpreted in mg/kg.

**Q:** Any idea what its ED50 is? The molecule is COC(=O)Cc1ccc2c(c1)C(=O)c1ccccc1CO2
**A:** 15.2

**Q:** Repeat for the following molecule: Cc1ccc2c(c1)COc1cc(CC(=O)O)ccc1C2=O
**A:** 6.6

**Q:** Repeat for the following molecule: CCCCC1C(=O)N(c2ccccc2)N(c2ccccc2)C1=O
**A:** 77.7

**Q:** Repeat for the following molecule: CC(C(=O)O)c1ccc2c(c1)OCc1ccc(Cl)cc1C2=O (centres undefined)
**A:** 11.9

----------
Please go through the items and note down their ED50.
- Tested on: Mus musculus
- Test name: Analgesic activity in po dosed mouse assessed as inhibition of acetic acid-induced writhing
- Format: functional
State just the number; it will be interpreted in mg/kg.

**Q:** Any idea what its ED50 is? The compound is O=C(O)Cc1ccc2c(c1)C(=O)c1ccccc1CO2
**A:** 95

**Q:** Repeat for the following compound: COc1ccc2c(c1)c(CC(=O)O)c(C)n2C(=O)c1ccc(Cl)cc1
**A:** 10

**Q:** Repeat for the following compound: CC(C(=O)O)c1ccc2c(c1)OCc1cc(Cl)ccc1C2=O (stereo not given)
**A:** 36

**Q:** Repeat for the following compound: CC(C(=O)O)c1ccc2c(c1)OCc1ccccc1C2=O (racemic)
**A:** 11

**Q:** Repeat for the following compound: CC(C(=O)O)c1cccc(C(=O)c2ccccc2)c1 (stereo not given)
**A:** 71

----------
Please go through the items and note down their ED50.
- System: Rattus norvegicus
- Test name: Antiinflammatory activity in po dosed rat assessed as inhibition of carrageenan-induced paw edema
- Type: functional
- Condition set: Rattus norvegicus, po; read-out: ID50 (the source's name)
State just the number; it will be interpreted in mg/kg.

**Q:** Any idea what its ED50 is? The molecule is COc1ccc2c(c1)c(CC(=O)O)c(C)n2C(=O)c1ccc(Cl)cc1
**A:** 8.4

**Q:** Repeat for the following molecule: CC(C(=O)O)c1ccc2c(c1)OCc1cc(Cl)ccc1C2=O (stereo not drawn)
**A:** 1.4

**Q:** Repeat for the following molecule: O=C(O)Cc1ccc2c(c1)C(=O)c1ccccc1CO2
**A:** 14.3

**Q:** Repeat for the following molecule: O=C(O)Cc1ccc2c(c1)OCc1ccccc1C2=O [OXEPINAC]
**A:** 3.7

**Q:** Repeat for the following molecule: O=C(O)Cc1ccc2c(c1)OCc1cc(I)ccc1C2=O
**A:** 6.7

**Q:** Repeat for the following molecule: CC(C(=O)O)c1ccc2c(c1)OCc1ccccc1C2=O (stereo in doubt; 23)
**A:** 0.43

**Q:** Repeat for the following molecule: CCOC(=O)Cc1ccc2c(c1)C(=O)c1ccccc1CO2
**A:** 17.8

**Q:** Repeat for the following molecule: O=C(O)Cc1ccc2c(c1)OCc1cc(Cl)ccc1C2=O
**A:** 7.6

**Q:** Repeat for the following molecule: CC(C(=O)O)c1cccc(C(=O)c2ccccc2)c1 (stereo not drawn)
**A:** 12.5

**Q:** Repeat for the following molecule: CC(C(=O)[O-])c1ccc2c(c1)C(=O)c1ccccc1CO2.CC(C(=O)[O-])c1ccc2c(c1)C(=O)c1ccccc1CO2.[Ca+2] (stereo not drawn)
**A:** 3.5

**Q:** Repeat for the following molecule: CC(C(=O)O)c1ccc2c(c1)OCc1cc(F)ccc1C2=O (stereo not drawn)
**A:** 4

**Q:** Repeat for the following molecule: CC(C(=O)O)c1ccc2c(c1)OCc1cc(I)ccc1C2=O (stereo not drawn)
**A:** 4.8

**Q:** Repeat for the following molecule: CCOC(=O)Cc1ccc2c(c1)OCc1ccccc1C2=O
**A:** 8.6

**Q:** Repeat for the following molecule: O=C(O)Cc1ccc2c(c1)C(=O)c1ccc(Cl)cc1CO2
**A:** 41.6

**Q:** Repeat for the following molecule: CC(C(=O)O)c1ccc2c(c1)C(=O)c1ccc(Cl)cc1CO2 (stereo not drawn)
**A:** 7.6

----------
- Test name: Toxicity in po dosed rat assessed as induction of gastric lesion
- Type: organism-based, Stomach
- Condition set: in vivo, read-out: UD50 (the source's name)
Please go through the items and note down their TD50.
State just the number; it will be interpreted in mg/kg.

**Q:** Any idea what its TD50 is? The compound is CCCCC1C(=O)N(c2ccccc2)N(c2ccccc2)C1=O
**A:** 96

**Q:** Repeat for the following compound: CC(C(=O)O)c1ccc2c(c1)OCc1cc(Cl)ccc1C2=O (stereo not given)
**A:** 32.3

**Q:** Repeat for the following compound: O=C(O)Cc1ccc2c(c1)OCc1ccccc1C2=O [OXEPINAC]
**A:** 79.9

**Q:** Repeat for the following compound: CC(C(=O)O)c1cccc(C(=O)c2ccccc2)c1 (stereo not given)
**A:** 6.8

**Q:** Repeat for the following compound: COc1ccc2c(c1)c(CC(=O)O)c(C)n2C(=O)c1ccc(Cl)cc1
**A:** 6.6

----------
- Test system: Rattus norvegicus
- Test name: Antiinflammatory activity in rat with acute phase of inflammation assessed as inhibition of adjuvant-carrageenan-induced paw edema at 2 mg/kg, po relative to control
- Type: functional
Please go through the items and note down their inhibition in vivo at 2 mg/kg.

**Q:** Any idea what its inhibition in vivo at 2 mg/kg is? The molecule is CC(C(=O)O)c1ccc2c(c1)C(=O)c1ccccc1CO2 (racemic)
**A:** 57%

**Q:** Repeat for the following molecule: O=C(O)Cc1ccc2c(c1)OCc1ccccc1C2=O [OXEPINAC]
**A:** 45%

**Q:** Repeat for the following molecule: COc1ccc2c(c1)c(CC(=O)O)c(C)n2C(=O)c1ccc(Cl)cc1
**A:** 48%

**Q:** Repeat for the following molecule: O=C(O)Cc1ccc2c(c1)C(=O)c1ccccc1CO2
**A:** 28%

----------
Please go through the items and note down their ED50.
- System: Rattus norvegicus
- Test name: Antiinflammatory activity in po dosed rat assessed as inhibition of carrageenan-induced paw edema
- Type: functional
- Condition set: Rattus norvegicus, po; read-out: ID50 (the source's name)

**Q:** Any idea what its ED50 is? The compound is O=C(O)Cc1ccc2c(c1)OCc1cc(F)ccc1C2=O
**A:** > 9 mg/kg

**Q:** Repeat for the following compound: CC(C(=O)O)c1ccc2c(c1)OCc1cc(C(F)(F)F)ccc1C2=O (stereo not drawn)
**A:** > 9 mg/kg

**Q:** Repeat for the following compound: O=C(O)Cc1ccc2c(c1)OCc1cc(C(F)(F)F)ccc1C2=O
**A:** > 9 mg/kg

**Q:** Repeat for the following compound: COc1ccc2c(c1)COc1cc(CC(=O)O)ccc1C2=O
**A:** > 9 mg/kg

**Q:** Repeat for the following compound: COc1ccc2c(c1)COc1ccc(CC(=O)O)cc1C2=O
**A:** > 18 mg/kg

**Q:** Repeat for the following compound: O=C(O)Cc1cccc2c1C(=O)c1ccccc1CO2
**A:** > 18 mg/kg

**Q:** Repeat for the following compound: O=C(O)Cc1ccc2c(c1)C(=O)c1cc(Cl)ccc1CO2
**A:** > 18 mg/kg

**Q:** Repeat for the following compound: O=C(O)Cc1cc2c(c([N+](=O)[O-])c1)OCc1ccccc1C2=O
**A:** > 18 mg/kg
